Data credit: ChEMBL document CHEMBL3885861

- Organism: Rattus norvegicus
- Method notes: Open TG-GATES - Regimen: Daily Repeat
- Type: toxicity, organism-based, Sprague-Dawley
- Parameters: regimen Daily Repeat, gender Male, age 6 weeks
- Condition summary: in vivo, po, 300 mg/kg, […], tissue Blood, route gavage, dose level Middle, time 7 day
The threshold is inclusive: Neu of exactly 20% counts as TRUE; values below receive FALSE.

[ask] Textbook exercise: given the entry COC(=O)C1=C(C)NC(C)=C(C(=O)OC)C1c1ccccc1[N+](=O)[O-] , state whether its Neu is greater than or equal to 20%.
[reply] TRUE

[ask] Textbook exercise: given the entry O=C(OC[C@H]1O[C@@H](OC(=O)c2cc(O)c(O)c(OC(=O)c3cc(O)c(O)c(O)c3)c2)[C@H](OC(=O)c2cc(O)c(O)c(OC(=O)c3cc(O)c(O)c(O)c3)c2)[C@@H](OC(=O)c2cc(O)c(O)c(OC(=O)c3cc(O)c(O)c(O)c3)c2)[C@@H]1OC(=O)c1cc(O)c(O)c(OC(=O)c2cc(O)c(O)c(O)c2)c1)c1cc(O)c(O)c(OC(=O)c2cc(O)c(O)c(O)c2)c1 , state whether its Neu is greater than or equal to 20%.
[reply] FALSE

[ask] Textbook exercise: given the entry CCOc1ccc(NC(C)=O)cc1 , state whether its Neu is greater than or equal to 20%.
[reply] TRUE

[ask] Textbook exercise: given the entry CN/C(=N/CCSCc1nc[nH]c1C)NC#N , state whether its Neu is greater than or equal to 20%.
[reply] FALSE

[ask] Textbook exercise: given the entry Cc1nnc2n1-c1ccc(Cl)cc1C(c1ccccc1Cl)=NC2 , state whether its Neu is greater than or equal to 20%.
[reply] FALSE

[ask] Textbook exercise: given the entry CNC(=C[N+](=O)[O-])NCCSCc1ccc(CN(C)C)o1 , state whether its Neu is greater than or equal to 20%.
[reply] FALSE

* * *

Would you kindly list Eos for each of these compounds?
- Organism: Rattus norvegicus
- Method notes: Open TG-GATES - Regimen: Daily Repeat
- Format: toxicity, organism-based, Sprague-Dawley
- Parameters: regimen Daily Repeat, gender Male, age 6 weeks
- Condition summary: in vivo, po, 100 mg/kg, […], tissue Blood, route gavage, dose level Low, time 7 day
Number only, in %; omit the unit.

[ask] Report Eos for COC(=O)C1=C(C)NC(C)=C(C(=O)OC)C1c1ccccc1[N+](=O)[O-] [NIFEDIPINE] please.
[reply] 1.4

[ask] Report Eos for Cc1nnc2n1-c1ccc(Cl)cc1C(c1ccccc1Cl)=NC2 [TRIAZOLAM] please.
[reply] 0.8

[ask] Report Eos for CN/C(=N/CCSCc1nc[nH]c1C)NC#N [CIMETIDINE] please.
[reply] 0.8

[ask] Report Eos for CNC(=C[N+](=O)[O-])NCCSCc1ccc(CN(C)C)o1 [RANITIDINE] please.
[reply] 1

[ask] Report Eos for CCOc1ccc(NC(C)=O)cc1 [PHENACETIN] please.
[reply] 1.2

[ask] Report Eos for O=C(OC[C@H]1O[C@@H](OC(=O)c2cc(O)c(O)c(OC(=O)c3cc(O)c(O)c(O)c3)c2)[C@H](OC(=O)c2cc(O)c(O)c(OC(=O)c3cc(O)c(O)c(O)c3)c2)[C@@H](OC(=O)c2cc(O)c(O)c(OC(=O)c3cc(O)c(O)c(O)c3)c2)[C@@H]1OC(=O)c1cc(O)c(O)c(OC(=O)c2cc(O)c(O)c(O)c2)c1)c1cc(O)c(O)c(OC(=O)c2cc(O)c(O)c(O)c2)c1 [TANNIC ACID] please.
[reply] 1
